TEST_CONTEXT: female, NMRI, mouse, in vivo, sc
ASSAY_READOUT: subcutaneous bioavailability (AUC [s.c.adm]/AUC [i.v. adm])×100%

[
  {
    "SUBSTANCE": "H-KFFKFFKFFK-g.abu-PheGly-TTCTAACATTTA-NH2 [Compound VI]",
    "EXPERIMENTAL_RESULT": "62%"
  },
  {
    "SUBSTANCE": "H-KFFKFFKFFK-achc-b.Ala-TTCTAACATTTA-NH2 [Compound V]",
    "EXPERIMENTAL_RESULT": "68%"
  },
  {
    "SUBSTANCE": "H-KFFKFFKFFK-b.cypr-g.abu-ACTTTGTCGCCA-NH2 [Compound IV]",
    "EXPERIMENTAL_RESULT": "78%"
  },
  {
    "SUBSTANCE": "H-KFFKFFKFFK-pfPhe-cha-TTCTAACATTTA-NH2 [Compound VII]",
    "EXPERIMENTAL_RESULT": "69%"
  }
]

---

TEST_CONTEXT: female, NMRI, mouse, in vivo
ASSAY_READOUT: oral bioavailability (AUC [p.o. adm]/AUC [i.v. adm])×100% (%)

[
  {
    "SUBSTANCE": "H-KFFKFFKFFK-pfPhe-cha-TTCTAACATTTA-NH2 [Compound VII]",
    "EXPERIMENTAL_RESULT": 54
  },
  {
    "SUBSTANCE": "H-KFFKFFKFFK-achc-b.Ala-TTCTAACATTTA-NH2 [Compound V]",
    "EXPERIMENTAL_RESULT": 9
  },
  {
    "SUBSTANCE": "H-KFFKFFKFFK-b.cypr-g.abu-ACTTTGTCGCCA-NH2 [Compound IV]",
    "EXPERIMENTAL_RESULT": 24
  },
  {
    "SUBSTANCE": "H-KFFKFFKFFK-g.abu-PheGly-TTCTAACATTTA-NH2 [Compound VI]",
    "EXPERIMENTAL_RESULT": 6
  }
]

Attribution: patent US20040072743A1
